Property: EC50; scope: individual compounds
# Tested on: L. donovani HU3 strain in mouse peritoneal macrophages
# PROCEDURE SUMMARY: Assay for inhibition of parasitemia of Leishmania donovani in mouse macrophages (SYBR Green nuclei count, high-content imaging)
# Format: cell-based
# CONDITION DESCRIPTION: Leishmania donovani, Peritoneal macrophage, L. donovani in mouse peritoneal macrophages; read-out: L. donovani in Mouse Macrophages EC50

COMPOUND | EC50
O=C(Nc1ccc(F)c(-n2cc3cc(C4CC4)cnc3n2)c1)N1CC(F)C1 | 0.017 µM
Cn1cnc(-c2cnc3nn(-c4cc(NC(=O)N5CC(F)C5)ccc4F)cc3c2)c1 | 0.097 µM
COC1CN(c2cnc3nn(-c4cc(NC(=O)N5CC(F)C5)ccc4F)cc3c2)C1 | 0.011 µM
Cc1nc(C)c(C(=O)Nc2ccc(F)c(-n3cc4cc(-c5ccccn5)cnc4n3)c2)o1 | 0.004 µM
CC(C)(C)Cc1cnc2nn(-c3cc(NC(=O)N4CC[C@@H](F)C4)ccc3F)cc2c1 | 0.0035 µM
CC(C)CCc1cnc2nn(-c3cc(NC(=O)N4CC(F)C4)ccc3F)cc2c1 | 0.015 µM
Cc1ncc(C(=O)Nc2ccc(F)c(-n3cc4cc(C(C)C)cnc4n3)c2)o1 | 0.007 µM
CC1CCC(C(=O)Nc2ccc(F)c(-n3cc4cc(C(C)C)cnc4n3)c2)C1 (stereo not shown) | 0.87 µM
O=C(Nc1ccc(F)c(-n2cc3cc(N4CC5(CC5)C4)cnc3n2)c1)[C@H]1C[C@@H]1F (racemic) | 0.085 µM
O=C(Nc1ccc(F)c(-n2cc3cc(C4CCCCC4)cnc3n2)c1)N1CC(F)C1 | 0.081 µM
Cc1nc(C)c(C(=O)Nc2ccc(F)c(-n3cc4cc(N5CCOCC5)cnc4n3)c2)o1 | 0.016 µM
CC(C)(C)Cc1cnc2nn(-c3cc(NC(=O)c4ccco4)ccc3F)cc2c1 | 0.021 µM
CC(C)(C)OC(=O)N1CCCC1c1cnc2nn(-c3cc(NC(=O)N4CCC4)ccc3F)cc2c1 (stereo not shown) | 0.023 µM
Cc1nc(C)c(C(=O)Nc2ccc(F)c(-n3cc4cc(N5CCC5)cnc4n3)c2)o1 | 0.022 µM
Cn1cc(-c2cnc3nn(-c4cc(NC(=O)N5CC(F)C5)ccc4F)cc3c2)cn1 | 0.003 µM
O=C(Nc1ccc(F)c(-n2cc3cc(-c4ncccc4Cl)cnc3n2)c1)N1CC(F)(F)C1 | 0.002 µM
CC(C)c1cnc2nn(-c3cc(NC(=O)c4ncc(F)cc4F)ccc3F)cc2c1 | 0.1 µM
O=C(Nc1ccc(F)c(-n2cc3cc(C4CCC4)cnc3n2)c1)N1CC(F)C1 | 0.037 µM
O=C1CCC2(CN(c3cnc4nn(-c5cc(NC(=O)N6CC(F)C6)ccc5F)cc4c3)C2)N1 | 1.49 µM
CC(C)CNc1cnc2nn(-c3cc(NC(=O)N4CC(F)C4)ccc3F)cc2c1 | 0.049 µM
O=C(Nc1ccc(F)c(-n2cc3cc(-c4ccccn4)cnc3n2)c1)C1CC12CC2 (stereo not shown) | 0.155 µM
O=C(Nc1ccc(F)c(-n2cc3cc(N4CC(C(F)(F)F)C4)cnc3n2)c1)N1CC[C@@H](F)C1 | 0.003 µM

Ref: patent US11384078B2
